Values from patent US20260098080A1

Biological target: rat MASP-2 (in rat serum) (rat, UniProt Q9JJS8 20-685)
Sequence (Q9JJS8 20-685 limits assumed): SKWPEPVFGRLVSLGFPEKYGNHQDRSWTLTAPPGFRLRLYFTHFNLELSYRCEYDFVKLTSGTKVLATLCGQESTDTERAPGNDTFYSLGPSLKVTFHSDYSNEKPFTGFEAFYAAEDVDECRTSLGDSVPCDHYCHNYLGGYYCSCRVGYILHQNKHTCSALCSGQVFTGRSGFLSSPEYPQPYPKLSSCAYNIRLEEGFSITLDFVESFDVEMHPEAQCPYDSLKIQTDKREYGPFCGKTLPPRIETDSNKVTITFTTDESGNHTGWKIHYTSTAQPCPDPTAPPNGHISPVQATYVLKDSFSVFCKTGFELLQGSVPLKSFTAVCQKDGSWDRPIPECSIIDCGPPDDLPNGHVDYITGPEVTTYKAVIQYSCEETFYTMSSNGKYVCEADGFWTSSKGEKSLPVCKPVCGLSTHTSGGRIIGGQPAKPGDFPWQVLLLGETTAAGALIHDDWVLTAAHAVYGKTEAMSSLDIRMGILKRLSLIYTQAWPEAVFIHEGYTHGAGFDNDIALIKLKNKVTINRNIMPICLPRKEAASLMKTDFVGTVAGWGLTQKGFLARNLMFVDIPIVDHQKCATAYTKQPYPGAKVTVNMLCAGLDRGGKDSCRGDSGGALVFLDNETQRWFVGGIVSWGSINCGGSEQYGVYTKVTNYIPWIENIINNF
Assay: cell-based or functional assay
Where no end group is shown, it is not given here.
Experimental Readout: Relative potency, lectin pathway, rat serum
Reply with a number, then the unit it belongs to.

Record request: Relative potency, lectin pathway, rat serum value, item EVO21a (designed binder, not fully specified; cysteine pairing not given here, Modified TFPI-D2 Kunitz domain; made as m1) KPDFCFLENDPGPCRAVKRRYFYNNQTKQCERFGYGGCLGNMNNFVTLEECKNICEDG
2.7 fold vs EVO2

Record request: Relative potency, lectin pathway, rat serum value, item EVO212 (designed binder, not fully specified; ends and bridges not checked, Modified TFPI-D2 Kunitz domain; made as m1) KPDFCFLENDPGLCRALKRRYFYNNQTKQCERFGYGGCLGNMNNFVTLEECKNICEDG
2.3 fold vs EVO2
